Assign protein stability index to each entry below.
B1: LOXL2 (parent)
chain: YVEVKEGKTWKQICDKHWTAKNSR

Variants of: B1
Assay Name: protein stability index of a GFP-peptide fusion (GPS, HEK-293T) (PSI 1-6); higher = more stable;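 note: lentivirally expressed fusions sorted by FACS into six bins by GFP to DsRed ratio, PSI derived from sequencing read proportions per bin multiplied by bin number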
Condition Notes: c terminus: a fixed tail appended
Provide a numeric answer; units are not to be included.

Exercise: Consider the variant shown here: Q12D What is its recorded protein stability index?
Solution: 2.02

Exercise: Field entry: T9P
Solution: 2

Exercise: // same read-out, input: V2K
Solution: 3
